Test: Primary qHTS for delayed death inhibitors of the malarial parasite plastid, 96 hour incubation
Details: P. falciparum luciferase reporter growth; series mostly up to 28.7 µM
Out of some 320,000 compounds screened, about 22,000 (6.9%) were called active. Inconclusive results (about 27%) are left out. The call rests on the fitted dose curve; in most records, active means well fitted inhibition curve with a large enough effect; inconclusive means small, poorly fitted or top-dose-only effect, or another doubt; inactive means no such curve, though single readings can be large or run the other way. Shown is part of a subset that was picked to be rich in actives.
Outcome codes: TRUE for active, FALSE for inactive

{"columns": ["molecule", "classification"],
 "data": [
  ["CC(C)CCNC(=O)c1ccc2c(Cl)c3c(nc2c1)CCC3", "FALSE"],
  ["COc1ccc(N2C(=O)C(Cc3ccccc3)NC2=S)cc1 (stereo not given)", "FALSE"],
  ["O=C(NC1(C(F)(F)F)NC(=O)N(C2CCCCC2)C1=O)c1ccco1 (stereo not given)", "FALSE"],
  ["COc1cc(C(c2c(NC(=O)c3ccco3)sc(C)c2C)N2CCOCC2)cc(OC)c1OC (stereo not given)", "TRUE"],
  ["COc1ccc(C2C(C(C)=O)=C(O)C(=O)N2Cc2cccnc2)cc1 (stereo not given)", "FALSE"],
  ["CCCCC(=O)NNC(=S)NC(=O)C(c1ccccc1)c1ccccc1", "FALSE"],
  ["Cc1ccc(OCCOc2cccc(/C=N/NC(N)=O)c2)cc1", "FALSE"],
  ["Cc1cccc(N2C(=O)N3[C@H](c4ccc(F)cc4)[C@@H]4C(=O)N(C5CCCCC5)C(=O)[C@@H]4[C@]3(Cc3ccccc3)C2=O)c1", "TRUE"],
  ["CCCCCCOC(=O)NCC(O)c1ccccc1 (stereo not given)", "FALSE"],
  ["COC(=O)c1cc(NC(=O)c2ccco2)ccc1N1CCOCC1", "FALSE"]
]}

* * *

Assay: Primary qHTS for delayed death inhibitors of the malarial parasite plastid, 96 hour incubation; further: potency means the concentration at half of the fitted maximal effect
Settings: P. falciparum luciferase reporter growth; series mostly up to 28.7 µM
In all, about 320,000 compounds went through this assay and about 22,000 (6.9%) were called active. About 27% were inconclusive and are not listed. The full list was thinned out, with actives kept by preference.

{"columns": ["compound", "Potency"],
 "data": [
  ["CCOC(=O)C1=C(N)N(c2ccc(C)cc2)C2=C(C(=O)CCC2)C1c1cccs1 (stereo unspecified)", "3.7 µM (active)"],
  ["CC1=C(C(=O)Nc2ccccc2)SCCO1", "inactive"],
  ["O=C(CCc1ccc(S(=O)(=O)N2CCOCC2)cc1)NN=C1CCCCCCC1", "inactive"],
  ["CC(C)CNC(=O)C(=O)NCC(c1ccc2c(c1)OCO2)N1CCOCC1 (stereo unspecified)", "inactive"],
  ["CNc1ccc([N+](=O)[O-])cc1C(=O)O", "inactive"],
  ["Cn1cccc1C(=O)NNC(=O)COc1ccc(Br)cc1", "inactive"],
  ["O=C(COC(=O)CCc1ccc(S(=O)(=O)N2CCOCC2)cc1)Nc1cccc(Cl)c1", "inactive"],
  ["O=C(NCCc1ccc(Cl)cc1)C1CCCN1C(=O)NCc1ccccc1 (stereo unspecified)", "inactive"],
  ["CC(=O)Nc1c2c(nn1-c1ccc(C)cc1C)CS(=O)C2 (stereo unspecified)", "inactive"],
  ["O=C(CCc1ccc(S(=O)(=O)N2CCOCC2)cc1)Nc1ccc2ccccc2c1", "5.22 µM (active)"],
  ["O=C1CCC(C(=O)N2CCCCO2)CN1Cc1cccc(C(F)(F)F)c1 (stereo unspecified)", "inactive"]
]}

* * *

Assay: Primary qHTS for delayed death inhibitors of the malarial parasite plastid, 96 hour incubation
Settings: P. falciparum luciferase reporter growth; series mostly up to 28.7 µM
Out of some 320,000 compounds screened, about 22,000 (6.9%) were called active. Roughly 27% stayed inconclusive and do not appear here. The call rests on the fitted dose curve; in most records, active means well fitted inhibition curve with a large enough effect; inconclusive means small, poorly fitted or top-dose-only effect, or another doubt; inactive means no such curve, though single readings can be large or run the other way. This excerpt belongs to a sample that is enriched for actives.
Outcome codes: Yes = active, No = inactive

{"columns": ["compound", "classification"],
 "data": [
  ["COc1ccc(-n2nc(C(=O)NCC(=O)N3CCCCCC3)c3ccccc3c2=O)cc1Cl", "Yes"],
  ["O=C(Nc1cccnc1Cl)c1cc(-c2ccccc2O)on1", "No"],
  ["COc1ccc(-n2nc(C(=O)NCC(=O)N3CCC(C(N)=O)CC3)c3ccccc3c2=O)cc1OC", "No"],
  ["Cc1ccccc1NC(=O)c1cc(S(=O)(=O)Nc2cccc(C(=O)O)c2)ccc1Cl", "No"],
  ["COCCn1c(CN2CCC(Cc3ccccc3)CC2)nc2c1c(=O)n(C)c(=O)n2C", "Yes"],
  ["CCOC(=O)C(C)n1cnc2c(nnn2-c2ccc(F)cc2)c1=O (configuration not stated)", "No"],
  ["O=S(=O)(NCc1ccccc1Br)c1ccccc1Br", "No"],
  ["CSCCC(NC(=O)c1ccco1)C(=O)Nc1cc(C)ccn1 (configuration not stated)", "No"],
  ["COc1cc(NC(=O)CCNC(=O)Cn2ccc3ccccc3c2=O)cc(OC)c1OC", "No"],
  ["CC(=O)Nc1ccc(NC(=O)CCN2C(=O)C3CC=CCC3C2=O)cc1 (configuration not stated)", "No"],
  ["COc1ccc(-c2onc3ccc(C(C)=O)cc23)cc1", "No"],
  ["CCOC(=O)C1=C(C)N=c2s/c(=C\\C(=O)OC)c(=O)n2C1c1ccc(OC)cc1 (configuration not stated)", "No"],
  ["CCOC(=O)C1=C(C)NC2=C(C(=O)CC(C)(C)C2)C1c1ccsc1 (configuration not stated)", "Yes"],
  ["CC(C)Cn1c(CN(Cc2ccccc2)Cc2ccccc2)nc2c1c(=O)n(C)c(=O)n2C", "No"],
  ["CCCCCCn1c(CN2CCCC(C)C2)nc2c1c(=O)n(C)c(=O)n2C (configuration not stated)", "No"],
  ["O=C(Nc1ccc(O)cc1)c1ccc(NC(=O)c2ccco2)cc1", "No"],
  ["O=C(Nc1ccc2c(c1)OCO2)C1CC1(Cl)Cl (configuration not stated)", "No"],
  ["Cc1cccc(OCCC(=O)Nc2ccccc2C(N)=O)c1", "No"],
  ["CCOc1ccc(N(C)S(=O)(=O)c2cnc[nH]2)cc1", "No"],
  ["CCOc1ccc(N(CC(=O)NCC2CCCO2)S(=O)(=O)c2ccc(C)cc2)cc1 (configuration not stated)", "No"],
  ["NC(=O)C1CCN(c2nc(-c3cccc(F)c3)cs2)CC1", "No"],
  ["COc1ccccc1NC(=O)C1=C(C)Nc2ncnn2C1c1ccc(C)o1 (configuration not stated)", "No"]
]}

* * *

Assay: Primary qHTS for delayed death inhibitors of the malarial parasite plastid, 96 hour incubation
Conditions: P. falciparum luciferase reporter growth; series mostly up to 28.7 µM
Out of some 320,000 compounds screened, about 22,000 (6.9%) were called active. Inconclusive results (about 27%) are left out. Calls follow the shape of the dose curve; as a rule, active = well fitted inhibition curve with a large enough effect; inconclusive = small, poorly fitted or top-dose-only effect, or another doubt; inactive = no such curve, though single readings can be large or run the other way. The entries come from a sample that favours actives as a whole.
Outcome codes: label 1 for active, label 0 for inactive

{"columns": ["compound", "classification"],
 "data": [
  ["NC(=O)C1CCN(C(=O)CC2C(=O)NCCN2Cc2cccc(Oc3ccccc3)c2)CC1 (stereo not given)", "label 0"],
  ["CCCCN(CC(=O)Nc1cccc(S(=O)(=O)N2CCCC2)c1)Cc1nc2ccccc2c(=O)[nH]1", "label 1"],
  ["CCOc1ccc(-n2cnc3c(=O)[nH]c(N)nc32)cc1", "label 0"],
  ["CC1(C)C(C=C(Cl)Cl)C1C(=O)N(Cc1ccc(Cl)cc1)C1CCS(=O)(=O)C1 (stereo not given)", "label 1"],
  ["CSCC[C@H](NC(=O)N1CCn2c1nc1ccccc12)C(=O)NC1CCCCC1", "label 0"]
]}

* * *

Test: Primary qHTS for delayed death inhibitors of the malarial parasite plastid, 96 hour incubation
Details: P. falciparum luciferase reporter growth; series mostly up to 28.7 µM
Description: The goal of this screen is to discover new antimalarial compounds that act by inhibiting the development of the apicoplast in the malarial parasite Plasmodium falciparum. […] We have developed a cell-based assay that measures parasite growth based on the expression of an integrated copy of a firefly luciferase reporter. […] Growth inhibition is detected by a decrease in luciferase activity. […]
Screen size: about 320,000 compounds; about 22,000 (6.9%) were called active. Roughly 27% stayed inconclusive and do not appear here. The call rests on the fitted dose curve; in most records, active means well fitted inhibition curve with a large enough effect; inconclusive means small, poorly fitted or top-dose-only effect, or another doubt; inactive means no such curve, though single readings can be large or run the other way. Many of the other results were omitted from the sample, so actives are more common in it than they were.
Outcome codes: active, inactive

{"columns": ["molecule", "classification"],
 "data": [
  ["Cc1ccccc1CCN(CC(=O)NC1CCCCC1)C(=O)c1csnn1", "active"],
  ["CCOC(=O)Cn1c(O)c(N=NC(=O)CNC(=O)Cc2ccccc2)c2ccccc21", "inactive"],
  ["c1ccc(-c2nnc(N3CCOCC3)c3ccccc23)cc1", "inactive"],
  ["COc1cc(CNCc2ccc3c(c2)OCO3)c([N+](=O)[O-])cc1OC", "inactive"],
  ["O=C(CSc1ccc(-c2ccc(F)cc2)nn1)Nc1ccc2c(c1)OCCO2", "inactive"],
  ["CN(C)N(C)C(=O)C(O)(c1ccccc1)c1ccccc1", "inactive"],
  ["CCOC(=O)C1=C(c2ccccc2)NC(=O)NC1c1cc(OC)c(OC)cc1OC (stereo not given)", "inactive"],
  ["Cc1ccc(-c2nnc(C)c(N3CC(C)OC(C)C3)n2)cc1 (stereo not given)", "inactive"],
  ["COc1ccc([C@H]2CC(=O)C=C(c3ccc(OC(F)(F)F)cc3)C2)cc1OC", "active"],
  ["Cc1cc(C(=O)OCC(=O)Nc2nccs2)c2ccccc2n1", "inactive"],
  ["COc1ccc(-c2cc(C(=O)NCCCN3CCCC3=O)c3ccccc3n2)cc1OC", "inactive"],
  ["COc1ccc(Cl)cc1NC(=O)CN(C)C(=O)c1ccc2n[nH]nc2c1", "inactive"],
  ["CCn1cc(C(=O)NCc2ccc3c(c2)OCO3)c2cc(OC)c(OC)cc2c1=O", "inactive"],
  ["O=C(CN1CCCCCC1)Nc1c(Cl)cc(Cl)cc1Cl", "inactive"],
  ["O=C(CSc1n[nH]c(-c2cccs2)n1)N1CCCCC1", "inactive"],
  ["O=C(O)C(NS(=O)(=O)c1cccc2nsnc12)c1ccccc1 (stereo not given)", "inactive"],
  ["COc1ccc(NC(=O)C(CC(C)C)NC(=O)C2CCC(C)CC2)cc1 (stereo not given)", "inactive"],
  ["CC(CCN1CCN=C1N(C)C)c1ccccc1 (stereo not given)", "inactive"],
  ["OCC[C@H]1C[C@H](O)[C@@H](O)[C@]2(Cc3ccccc3CO2)O1", "inactive"],
  ["COc1cc(C(=S)N2CCOCC2)ccc1O", "inactive"],
  ["CSc1ccccc1NC(=O)COC(=O)CCCOc1ccc(C)cc1", "inactive"],
  ["O=C(Nc1ccccc1)N1CCN(C(=O)Nc2ccccc2)CC1", "inactive"],
  ["Cc1sc2c(c1C)c(=O)n(-c1ccccc1)c(=O)n2CC(=O)NCC1CCCO1 (stereo not given)", "inactive"],
  ["COc1cc(OC)c(OC)cc1CN1CCN(C(=O)c2cccc3ccccc23)CC1", "inactive"],
  ["CN1c2ccc([N+](=O)[O-])cc2C(C)(C)C12C=Cc1cc(C(=O)O)ccc1O2 (stereo not given)", "inactive"],
  ["O=C(COc1cccc(Cl)c1)NCc1ccccc1", "inactive"],
  ["C=CCn1c(CNS(=O)(=O)c2ccc(Br)cc2)nnc1SC", "inactive"],
  ["COc1cccc(-n2nc(C(=O)N3CCN(Cc4ccccc4)CC3)c3ccccc3c2=O)c1", "active"],
  ["CCOc1cc(C(=S)N2CCOCC2)ccc1OS(=O)(=O)c1ccc(Br)cc1", "inactive"],
  ["COc1ccc(CN(C)C(=O)Cc2c[nH]c3ccccc23)c(OC)c1OC", "inactive"],
  ["COC(=O)c1[nH]c2ccc(Br)cc2c1NC(=O)Oc1ccccc1", "inactive"],
  ["Cc1ccsc1C(=O)NCCc1ccco1", "inactive"],
  ["COc1ccc(CN(C)C(=O)c2cc(-c3ccc(C)cc3C)nc3ccccc23)c(OC)c1OC", "active"],
  ["O=C(O)CCCC(=O)Nc1ccc(Oc2cccc(C(F)(F)F)c2)nc1", "inactive"],
  ["CCOc1ccccc1N1CCN(C(=S)Nc2ccc(S(N)(=O)=O)cc2)CC1", "inactive"],
  ["O=C(Cc1cccs1)N/N=C/c1ccc(OCc2ccccc2)cc1", "active"],
  ["NS(=O)(=O)c1cccc(NC(=O)CN2CCCc3ccccc32)c1", "inactive"],
  ["COCCN(C(=O)CC1CCCCC1)c1c(N)n(CC(C)C)c(=O)[nH]c1=O", "inactive"],
  ["O=c1cc(Cl)c2ccccc2n1-c1ccccc1", "inactive"],
  ["C[C@@H](NC(=O)OC(C)(C)C)c1nnc(S(=O)(=O)Cc2ccccc2)o1", "inactive"],
  ["CN1CCN(Cc2c(C(=O)N3CCc4ccccc4C3)nc3ccc(Cl)cn23)CC1", "inactive"],
  ["COc1cc(OC)c(C(=O)NCc2ccc3c(c2)OCO3)cc1OC", "active"],
  ["CC1CN(c2nc(-c3ccccc3)nnc2-c2ccccc2)CC(C)O1 (stereo not given)", "active"],
  ["CCOC(=O)C1=C(CSc2nccn2C)NC(=O)NC1c1ccc(OC)cc1 (stereo not given)", "active"],
  ["O=C1CSC(=S)N1c1ccc(Cl)c(Cl)c1", "inactive"]
]}
